Tested on: IL-17A secretion by CD4+ cells
protocol_notes: IL-17A secretion by activated CD4+ cells (HTRF)
Format: cell-based
measurement_setup: 96 h; human CD4+ cells activated with anti-CD3 and anti-CD28, 4 days of incubation, inhibitors 1000 nM to 0.05 nM; read-out: IC50 hCD4/IL17
assay_metric: IC50

>  <molecule>
CCc1ccc(N(CC(C)C)S(=O)(=O)c2ccc3c(CN4CCOCC4)n[nH]c3c2)cc1 [Compound 64]

>  <result>
< 100 nM

$$$$
>  <molecule>
COC(=O)c1ccc(N(CC(C)C)S(=O)(=O)c2ccc3c(cnn3CC3CCOCC3)c2)c(C)c1 [Compound 56]

>  <result>
< 100 nM

$$$$
>  <molecule>
CCc1ccc(N(CC(C)C)S(=O)(=O)c2ccc3c(cnn3Cc3ccncc3)c2)cc1 [Compound 36]

>  <result>
< 100 nM

$$$$
>  <molecule>
Cc1cc(C)c(N(CC(C)C)S(=O)(=O)c2ccc3c(cnn3CC3CCOCC3)c2)cn1 [Compound 71]

>  <result>
> 1000 nM

$$$$
>  <molecule>
CCc1ccc(N(CC(C)C)S(=O)(=O)c2ccc3c(CC4CCOCC4)n[nH]c3c2)cc1 [Compound 63]

>  <result>
< 100 nM

$$$$

Log: IL-17A secretion by CD4+ cells, molecule CCc1ccc(N(CC(C)C)S(=O)(=O)c2ccc3c(cnn3CC3COC3)c2)cc1 [Compound 37] , IC50 = < 100 nM

Log: IL-17A secretion by CD4+ cells, molecule CC(C)CN(c1ccc(N(C)C)cc1)S(=O)(=O)c1ccc2c(cnn2CC2CCOCC2)c1 [Compound 72] , IC50 = 100 to 1000 nM

Log: IL-17A secretion by CD4+ cells, molecule CCc1ccc(N(C(CC)CC)S(=O)(=O)c2ccc3c(cnn3CC3CCOCC3)c2)cc1 [Compound 1] , IC50 = 100 to 1000 nM

Log: IL-17A secretion by CD4+ cells, molecule CCc1ccc(N(CC(C)C)S(=O)(=O)c2ccc3c(cnn3CC3CCOCC3)c2)cc1 [Compound 39] , IC50 = 100 to 1000 nM

====

// reported IC50 per item
assayed_system: GAL4-RORγ (GAL4 DBD fused to the ROR gamma ligand-binding domain) (Homo sapiens, UniProt P51449)
protocol_notes: GAL4-RORγ transactivation (luciferase reporter, HG5LN HeLa line)
measurement_setup: HG5LN HeLa cells, 18 hours incubation, luciferase luminescence, read-out: IC50 hRORg

For orientation, consider the following solved cases.
>  <molecule>
CC(C)CN(Cc1ccccc1C(F)(F)F)S(=O)(=O)c1ccc2c(cnn2CC2CCOCC2)c1 [Compound 52]

>  <IC50>
100 to 1000 nM

$$$$
>  <molecule>
CCc1ccc(N(CC(C)C)S(=O)(=O)c2ccc3c(cnn3CC3CCCOC3)c2)cc1 (stereo not shown) [Compound 22]

>  <IC50>
> 1000 nM

$$$$
>  <molecule>
CC(C)CN(c1ccc(OC(F)(F)F)cc1)S(=O)(=O)c1ccc2c(cnn2CC2CCOCC2)c1 [Compound 49]

>  <IC50>
> 1000 nM

$$$$
>  <molecule>
Cc1ccc(F)cc1N(CC(C)C)S(=O)(=O)c1ccc2c(cnn2CC2CCOCC2)c1 [Compound 42]

>  <IC50>
100 to 1000 nM

$$$$
>  <molecule>
CCc1ccc(N(C(CC)CC)S(=O)(=O)c2ccc3c(cnn3CC3CCOCC3)c2)cc1 [Compound 1]

>  <IC50>
100 to 1000 nM

$$$$

response.value for CCc1ccc(N(CC(C)C)S(=O)(=O)c2ccc3c(cnn3C3CCN(C(C)=O)C3)c2)cc1 (stereo not shown) [Compound 17] (field: IC50) = 100 to 1000 nM

====

assayed_system: GAL4-RORγ (GAL4 DBD fused to the ROR gamma ligand-binding domain) (Homo sapiens, UniProt P51449)
protocol_notes: GAL4-RORγ transactivation (luciferase reporter, HG5LN HeLa line)
measurement_setup: HG5LN HeLa cells, 18 hours incubation, luciferase luminescence, read-out: IC50 hRORg
pIC50: −log10 of the molar value.
// reported pIC50 per item

For orientation, consider the following solved cases.
>  <compound>
CCc1ccc(N(CC(C)C)S(=O)(=O)c2ccc3c(Br)nn(C4CCCCO4)c3c2)cc1 (stereo not shown) [Compound 4]

>  <result>
< 6.00

$$$$
>  <compound>
CCc1ccc(N(CC(C)C)S(=O)(=O)c2ccc3c(cnn3CC3COC3)c2)cc1 [Compound 37]

>  <result>
6.00 to 7.00

$$$$
>  <compound>
CCc1ccc(N(CC(C)C)S(=O)(=O)c2ccc3c(cnn3Cc3c(C)noc3C)c2)cc1 [Compound 6]

>  <result>
6.00 to 7.00

$$$$
>  <compound>
CCc1ccc(N(CC(C)C)S(=O)(=O)c2ccc3c(CC4CCOCC4)n[nH]c3c2)cc1 [Compound 63]

>  <result>
> 7.00

$$$$

response.value for CC(C)CN(c1ccc(N(C)C)cc1)S(=O)(=O)c1ccc2c(cnn2CC2CCOCC2)c1 [Compound 72] (field: pIC50) = 6.00 to 7.00

response.value for CC(C)CN(c1cccc(Cl)c1)S(=O)(=O)c1ccc2c(cnn2CC2CCOCC2)c1 [Compound 44] (field: pIC50) = < 6.00

response.value for CCc1ccc(N(CC(C)C)S(=O)(=O)c2ccc3c(cnn3CC3CCN(C(C)=O)C3)c2)cc1 (stereo not shown) [Compound 20] (field: pIC50) = < 6.00

====

assayed_system: GAL4-RORγ (GAL4 DBD fused to the ROR gamma ligand-binding domain) (Homo sapiens, UniProt P51449)
Construct: expressed in transfected cells; host or cells: HG5LN (HeLa line with GAL4-responsive luciferase reporter)
protocol_notes: GAL4-RORγ transactivation (luciferase reporter, HG5LN HeLa line)
Format: cell-based
measurement_setup: HG5LN HeLa cells, 18 hours incubation, luciferase luminescence, read-out: IC50 hRORg
pIC50: −log10 of the molar value.
assay_metric: pIC50

For orientation, consider the following solved cases.
>  <compound>
CCc1ccc(N(CC(C)C)S(=O)(=O)c2ccc3[nH]nc(N)c3c2)cc1

>  <result>
< 6.00

$$$$
>  <compound>
CCc1ccc(N(CC(C)C)S(=O)(=O)c2ccc3c(cnn3CC3CCOC3)c2)cc1 (stereo not shown)

>  <result>
< 6.00

$$$$
>  <compound>
CCc1ccc(N(CC(C)C)S(=O)(=O)c2ccc3c(C=C4CCOCC4)n[nH]c3c2)cc1

>  <result>
> 7.00

$$$$
>  <compound>
CCc1ccc(N(CC2CCOC2)S(=O)(=O)c2ccc3c(cnn3CC3CCOCC3)c2)cc1 (stereo not shown)

>  <result>
< 6.00

$$$$

response.value for Cc1c(F)cccc1N(CC(C)C)S(=O)(=O)c1ccc2c(cnn2CC2CCOCC2)c1 (field: pIC50) = 6.00 to 7.00

response.value for Cc1ccc(C)c(N(CC(C)C)S(=O)(=O)c2ccc3c(cnn3CC3CCOCC3)c2)c1 (field: pIC50) = 6.00 to 7.00

response.value for COC(=O)c1ccc(N(CC(C)C)S(=O)(=O)c2ccc3c(cnn3CC3CCOCC3)c2)c(C)c1 (field: pIC50) = 6.00 to 7.00

====

assayed_system: GAL4-RORγ (GAL4 DBD fused to the ROR gamma ligand-binding domain) (Homo sapiens, UniProt P51449)
Sequence (P51449 269-508 limits assumed): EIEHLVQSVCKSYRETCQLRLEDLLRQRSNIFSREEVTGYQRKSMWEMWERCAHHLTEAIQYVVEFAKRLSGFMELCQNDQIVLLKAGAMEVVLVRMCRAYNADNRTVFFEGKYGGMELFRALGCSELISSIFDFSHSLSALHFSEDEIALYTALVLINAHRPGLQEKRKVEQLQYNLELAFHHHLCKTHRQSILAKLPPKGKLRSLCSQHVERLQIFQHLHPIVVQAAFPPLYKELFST
protocol_notes: GAL4-RORγ transactivation (luciferase reporter, HG5LN HeLa line)
measurement_setup: HG5LN HeLa cells, 18 hours incubation, luciferase luminescence, read-out: IC50 hRORg
pIC50: −log10 of the molar value.
// reported pIC50 per item

For orientation, consider the following solved cases.
>  <compound>
Cc1ccc(N(CC(C)C)S(=O)(=O)c2ccc3c(cnn3CC3CCOCC3)c2)c(C#N)c1

>  <pIC50>
6.00 to 7.00

$$$$
>  <compound>
CCc1ccc(N(CC(C)C)S(=O)(=O)c2ccc3c(cnn3Cc3ccncc3)c2)cc1

>  <pIC50>
6.00 to 7.00

$$$$

// below: pIC50 requested for another compound
response.value for CCc1ccc(N(C2CC2)S(=O)(=O)c2ccc3c(cnn3CC3CCOCC3)c2)cc1 (field: pIC50) = < 6.00
